System: COR-L105 (Lung Adenocarcinoma)
ASSAY INFO: combination Emax (second highest fraction inhibited in the dose matrix, 72 h); higher = more inhibition; extreme values may be limits of the assay
PROPERTY NAME: combination Emax

1) Cc1cc2ncnn2cc1Nc1ncc2c(n1)n(C1CCOCC1)c(=O)n2C [AZD7648] + CCN(CCO)CCCOc1ccc2c(Nc3cc(CC(=O)Nc4cccc(F)c4)[nH]n3)ncnc2c1 [AZD2811] (first compound max 10 µM, 7x7, partner max 1 µM)    0.31
2) Cc1nc(-c2cn3c(n2)-c2ccc(-c4cnn(C(C)(C)C(N)=O)c4)cc2OCC3)n(C(C)C)n1 [Taselisib] + O=C(Nc1ccc2[nH]nc(-c3ccncc3)c2c1)[C@@H]1CCN(CC(=O)N2CCN(c3ccc(-c4ncccn4)cc3)CC2)C1 [SCH772984] (first compound max 10 µM, 7x7, partner max 5 µM)    0.788
3) C[C@@H]1COCCN1c1cc(C2([S@](C)(=N)=O)CC2)nc(-c2ccnc3[nH]ccc23)n1 [AZD6738] + C1CC(C1)(C(=O)[O-])C(=O)[O-].N.N.[Pt+2] [Carboplatin] (first compound max 10 µM, 7x7, partner max 10 µM)    0.323
4) Cc1cc2ncnn2cc1Nc1ncc2c(n1)n(C1CCOCC1)c(=O)n2C [AZD7648] + O=C(c1cc(Cc2n[nH]c(=O)c3ccccc23)ccc1F)N1CCN(C(=O)C2CC2)CC1 [Olaparib] (first compound max 10 µM, 7x7, partner max 10 µM)    0.222
5) CC1(C)CCC(CN2CCN(c3ccc(C(=O)NS(=O)(=O)c4ccc(NCC5CCOCC5)c([N+](=O)[O-])c4)c(Oc4cnc5[nH]ccc5c4)c3)CC2)=C(c2ccc(Cl)cc2)C1 [Venetoclax] + COc1cc(Nc2ncc3c(n2)-c2ccc(Cl)cc2C(c2c(F)cccc2OC)=NC3)ccc1C(=O)O [Alisertib] (first compound max 1 µM, 7x7, partner max 10 µM)    0.377
6) Cc1c2c(nn1C)CSCc1cc(n(C)n1)CSc1cc(c3ccccc3c1)OCCCc1c(C(=O)O)n(C)c3c-2c(Cl)ccc13 [AZD5991] + Cc1cc2ncnn2cc1Nc1ncc2c(n1)n(C1CCOCC1)c(=O)n2C [AZD7648] (first compound max 1 µM, 7x7, partner max 10 µM)    0.33
7) C=CCn1c(=O)c2cnc(Nc3ccc(N4CCN(C)CC4)cc3)nc2n1-c1cccc(C(C)(C)O)n1 [AZD1775] + C[C@@H]1COCCN1C2=NC(=NC(=C2)C3(CC3)[S@](=N)(=O)C)C4=C5C=CNC5=NC=C4 [AZD6738] (first compound max 1 µM, partner max 10 µM)    0.595
8) O=C(c1cc(Cc2n[nH]c(=O)c3ccccc23)ccc1F)N1CCN(C(=O)C2CC2)CC1 [Olaparib] + CN(CC[C@H](CSC1=CC=CC=C1)NC2=C(C=C(C=C2)S(=O)(=O)NC(=O)C3=CC=C(C=C3)N4CCC(CC4)[C@H](C5=CC=CC=C5C6=CC=C(C=C6)Cl)O)S(=O)(=O)C(F)(F)F)CCO [AZD4320] (first compound max 10 µM, 7x7, partner max 1 µM)    0.219
9) CS(=O)(=O)CCNCc1ccc(-c2ccc3ncnc(Nc4ccc(OCc5cccc(F)c5)c(Cl)c4)c3c2)o1 [Lapatinib] + NC1(c2ccc(-c3nc4ccn5c(=O)[nH]nc5c4cc3-c3ccccc3)cc2)CCC1 [MK-2206] (first compound max 10 µM, 7x7, partner max 10 µM)    0.825
10) C[C@@H](c1ccc2nccn2c1)n1nnc2ncc(-c3cnn(C)c3)nc21 [Savolitinib] + Cc1c2c(nn1C)CSCc1cc(n(C)n1)CSc1cc(c3ccccc3c1)OCCCc1c(C(=O)O)n(C)c3c-2c(Cl)ccc13 [AZD5991] (first compound max 1 µM, 7x7, partner max 1 µM)    0.165
11) C[C@@H](Nc1cc(F)cc(F)c1)c1cc(C(=O)N(C)C)cc2c(=O)cc(N3CCOCC3)oc12 [AZD8186] + C1CN(CCC1(C(=O)N[C@@H](CCO)C2=CC=C(C=C2)Cl)N)C3=NC=NC4=C3C=CN4 [AZD5363] (first compound max 10 µM, 7x7, partner max 10 µM)    0.41
12) Cn1cnc2c(F)c(Nc3ccc(Br)cc3Cl)c(C(=O)NOCCO)cc21 [Selumetinib] + CCN(CCO)CCCOc1ccc2c(Nc3cc(CC(=O)Nc4cccc(F)c4)[nH]n3)ncnc2c1 [AZD2811] (first compound max 10 µM, 7x7, partner max 1 µM)    0.387
13) Cc1cc2ncnn2cc1Nc1ncc2c(n1)n(C1CCOCC1)c(=O)n2C [AZD7648] + C=CCn1c(=O)c2cnc(Nc3ccc(N4CCN(C)CC4)cc3)nc2n1-c1cccc(C(C)(C)O)n1 [AZD1775] (first compound max 10 µM, partner max 1 µM)    0.492
14) COc1nnc2ccc(N3CCC(c4ccc(OCCN5CCN(C)C(=O)[C@H]5C)cc4)CC3)nn12 [AZD5153] + C[C@@H]1COCCN1C2=NC(=NC(=C2)C3(CC3)[S@](=N)(=O)C)C4=C5C=CNC5=NC=C4 [AZD6738] (first compound max 1 µM, 7x7, partner max 10 µM)    0.477
